System: PBMC
Experiment: Effective concentration required for antiviral activity against HIV-1 1002-60 in PBMC cells
Type: functional, cell-based
Conditions: Homo sapiens
readout name: EC50

// query For the compound shown here, CC(C)(C)NC(=O)[C@@H]1CN(Cc2cccnc2)CCN1C[C@@H](O)C[C@@H](Cc1ccccc1)C(=O)N[C@H]1c2ccccc2C[C@H]1O , give the reported EC50.
// result > 100 µM

* * *

Experiment: Effective concentration required for antiviral activity against HIV-1 144-44 in PBMC cells
Type: functional, cell-based
Conditions: Homo sapiens
Reported log10 of EC50 values follow for various molecules
In our notation, the value equals log10 of EC50 in nM.

These solved cases illustrate the format of a correct answer.
molecule="Cc1cc(SC2=C(O)O[C@](CCc3ccc(O)cc3)(C(C)C)CC2=O)c(C(C)(C)C)cc1N (stereo in doubt; 1S)" readout_name="log10 of EC50" observed=2.38
molecule=Cc1cc(SC2=C(O)O[C@](CCc3ccccc3)(C(C)C)CC2=O)c(C(C)(C)C)cc1NS(=O)(=O)c1ccc(C#N)cc1 readout_name="log10 of EC50" observed=2.76

// query Need log10 of EC50, item Cc1cc(SC2=C(O)OC(CCc3ccc(O)cc3)(C(C)C)CC2=O)c(C(C)(C)C)cc1OS(=O)(=O)c1cccs1 (stereo unspecified)
// result 2.73

// query Entry Cc1cc(SC2=C(O)OC(CCc3ccc(O)cc3)(C(C)C)CC2=O)c(C(C)(C)C)cc1OS(C)(=O)=O (stereo unspecified) : reported log10 of EC50 = ?
// result 2.86

// query Given the entry Cc1cc(SC2=C(O)OC(CCc3ccccc3)(C(C)C)CC2=O)c(C(C)(C)C)cc1NS(=O)(=O)c1ccc(C(F)(F)F)cn1 (stereo unspecified) , report its measured log10 of EC50.
// result 2.41

// query Please give the measured log10 of EC50 for this molecule: CC(C)(C)NC(=O)[C@@H]1C[C@@H]2CCCC[C@@H]2CN1C[C@@H](O)[C@H](Cc1ccccc1)NC(=O)[C@H](CC(N)=O)NC(=O)c1ccc2ccccc2n1
// result 4.05

* * *

Reported AUC values for a set of compounds
Assay: AUC value in mice
Format: ADME, organism-based
Settings: mouse, plasma
Give just the numeric value; ng·h/mL need not be written.

// worked examples, AUC included
compound="Cc1cc(SC2=C(O)OC(CCc3ccc(O)cc3)(C(C)C)CC2=O)c(C(C)(C)C)cc1NS(=O)(=O)c1ccc(C(F)(F)F)cn1 (centres undefined)" readout_name=AUC observed=980
compound=Cc1cc(SC2=C(O)O[C@](CCc3ccc(O)cc3)(C(C)C)CC2=O)c(C(C)(C)C)cc1OS(C)(=O)=O readout_name=AUC observed=5400
compound=Cc1cc(SC2=C(O)O[C@](CCc3ccccc3)(C(C)C)CC2=O)c(C(C)(C)C)cc1NS(=O)(=O)c1ccc(C(F)(F)F)cn1 readout_name=AUC observed=22000

// query Form field: reported AUC of Cc1cc(SC2=C(O)O[C@](CCc3ccc(O)cc3)(C(C)C)CC2=O)c(C(C)(C)C)cc1N (stereo in doubt; 1S)
// result 46300

* * *

Assay: Concentration which elicits cytotoxicity in 50% of uninfected human lymphocyte derived CEM cells
Format: cell-based, CCRF-CEM
Details: uninfected CCRF-CEM cells, read-out: TC50 (the source's name)
Lab note: anything with CC50 below 70 µM is marked TRUE; values at 70 µM or higher are marked FALSE.

The examples below pair each entry with its known result.
compound="Cc1cc(SC2=C(O)OC(CCc3ccc(O)cc3)(C(C)C)CC2=O)c(C(C)(C)C)cc1OS(=O)(=O)c1cccnc1 (stereo not given)" classification=FALSE
compound="Cc1cc(SC2=C(O)OC(CCc3ccccc3)(C(C)C)CC2=O)c(C(C)(C)C)cc1NS(=O)(=O)Cn1ccnc1 (stereo not given)" classification=FALSE
compound="Cc1cc(SC2=C(O)OC(CCc3ccccc3)(C(C)C)CC2=O)c(C(C)(C)C)cc1NS(=O)(=O)c1ccc(C#N)cc1 (stereo not given)" classification=TRUE
compound="Cc1cc(SC2=C(O)OC(C)(CCc3ccc(O)cc3)CC2=O)c(C(C)(C)C)cc1OS(=O)(=O)c1ccccc1 (stereo not given)" classification=FALSE
compound="CCNS(=O)(=O)Oc1cc(C(C)(C)C)c(SC2=C(O)OC(CCc3ccc(O)cc3)(C(C)C)CC2=O)cc1C (stereo not given)" classification=FALSE

// query Quick check: CC50 of Cc1cc(SC2=C(O)OC(CCc3ccc(O)cc3)(C3CC3)CC2=O)c(C(C)(C)C)cc1NS(=O)(=O)c1ccccc1 (stereo not given) under 70 µM?
// result FALSE

// query For Cc1cc(SC2=C(O)OC(CCc3ccc(O)cc3)(C(C)C)CC2=O)c(C(C)(C)C)cc1NS(=O)(=O)c1ccc(F)cc1 (stereo not given) , is the recorded CC50 below the cut-off of 70 µM?
// result TRUE

// query Confirm or reject: CC50 of Cc1cc(SC2=C(O)OC(CCc3ccc(O)cc3)(C3CCCCC3)CC2=O)c(C(C)(C)C)cc1OS(=O)(=O)c1ccc(F)cc1 (stereo not given) lies strictly below 70 µM
// result TRUE

// query Consider Cc1cc(SC2=C(O)OC(CCc3ccc(O)cc3)(C(C)C)CC2=O)c(C(C)(C)C)cc1NS(C)(=O)=O (stereo not given) . Does its CC50 lie strictly below 70 µM?
// result FALSE

// query Would you kindly verify if CC50 of Cc1cc(SC2=C(O)OC(C)(CCc3ccc(O)cc3)CC2=O)c(C(C)(C)C)cc1NS(=O)(=O)c1ccc(F)cc1 (stereo not given) is strictly less than 70 µM?
// result FALSE

* * *

Tested on: Human immunodeficiency virus 1
Experiment: Effective concentration at which 50% of the HIV-IIIB-infected human lymphocyte-derived CEM cells protected from HIV-1 infection
Conditions: Human immunodeficiency virus 1, CCRF-CEM
readout name: pEC50
pEC50 field: float, defined as -log10 of concentration (mol/L).

Below, 8 compounds whose answers are already recorded.
compound="Cc1cc(SC2=C(O)OC(C)(CCc3ccc(O)cc3)CC2=O)c(C(C)(C)C)cc1NS(=O)(=O)c1ccccc1 (stereo not given)" readout_name=pEC50 observed=5.28
compound="Cc1cc(SC2=C(O)OC(CCc3ccc(O)cc3)(C(C)C)CC2=O)c(C(C)(C)C)cc1OS(=O)(=O)c1ccccn1 (stereo not given)" readout_name=pEC50 observed=6.15
compound="Cc1cc(SC2=C(O)OC(CCc3ccc(O)cc3)(C(C)C)CC2=O)c(C(C)(C)C)cc1NS(=O)(=O)c1ccccc1 (stereo not given)" readout_name=pEC50 observed=5.85
compound="Cc1cc(SC2=C(O)OC(CCc3ccc(N)cc3)(C(C)C)CC2=O)c(C(C)(C)C)cc1OS(=O)(=O)c1cccs1 (stereo not given)" readout_name=pEC50 observed=5.22
compound="Cc1cc(SC2=C(O)OC(CCc3ccc(O)cc3)(C(C)C)CC2=O)c(C(C)(C)C)cc1NS(=O)(=O)c1ccc(Cl)cc1 (stereo not given)" readout_name=pEC50 observed=5.80
compound="Cc1cc(SC2=C(O)OC(CCc3ccc(N)cc3)(C(C)C)CC2=O)c(C(C)(C)C)cc1OS(=O)(=O)c1ccc(C#N)cc1 (stereo not given)" readout_name=pEC50 observed=6.40
compound="Cc1cc(SC2=C(O)OC(CCc3ccc(O)cc3)(C3CCCCC3)CC2=O)c(C(C)(C)C)cc1OS(=O)(=O)c1ccc(C#N)cc1 (stereo not given)" readout_name=pEC50 observed=5.59
compound="Cc1cc(SC2=C(O)OC(CCc3ccc(O)cc3)(C(C)C)CC2=O)c(C(C)(C)C)cc1NS(=O)(=O)c1cccc(C#N)c1 (stereo not given)" readout_name=pEC50 observed=5.28

// query Record request: pEC50 value, item Cc1cc(SC2=C(O)OC(CCc3ccccc3)(C(C)C)CC2=O)c(C(C)(C)C)cc1NS(=O)(=O)c1cccnc1 (stereo not given)
// result 5.80

// query Would you kindly share the measured pEC50 for Cc1cc(SC2=C(O)OC(CCc3ccc(N)cc3)(C(C)C)CC2=O)c(C(C)(C)C)cc1OS(=O)(=O)N(C)C (stereo not given) ?
// result 6.10

// query Using the record for Cc1cc(SC2=C(O)OC(CCc3ccc(O)cc3)(C3CC3)CC2=O)c(C(C)(C)C)cc1NS(=O)(=O)c1ccccc1 (stereo not given) , report its pEC50.
// result 5.62

* * *

Assay: Effective concentration required for antiviral activity against HIV-1 1026-60 in PBMC cells
Type: functional, cell-based
Conditions: Homo sapiens
Kindly apply the following: T if EC50 is less than 300 nM, F in every other case.

# example entries with known answers
compound="Cc1cc(SC2=C(O)O[C@](CCc3ccc(O)cc3)(C(C)C)CC2=O)c(C(C)(C)C)cc1N (stereo in doubt; 1S)" classification=F
compound="Cc1cc(SC2=C(O)OC(CCc3ccc(O)cc3)(C(C)C)CC2=O)c(C(C)(C)C)cc1OS(=O)(=O)c1cccs1 (stereo not given)" classification=F
compound="Cc1cc(SC2=C(O)OC(CCc3ccccc3)(C(C)C)CC2=O)c(C(C)(C)C)cc1NS(=O)(=O)c1ccc(C(F)(F)F)cn1 (stereo not given)" classification=T
compound=CC(C)(C)NC(=O)[C@@H]1C[C@@H]2CCCC[C@@H]2CN1C[C@@H](O)[C@H](Cc1ccccc1)NC(=O)[C@H](CC(N)=O)NC(=O)c1ccc2ccccc2n1 classification=F

// query Determine if Cc1cc(SC2=C(O)OC(CCc3ccc(O)cc3)(C(C)C)CC2=O)c(C(C)(C)C)cc1OS(C)(=O)=O (stereo not given) shows EC50 strictly lower than 300 nM.
// result F

Source of measurements: ChEMBL document CHEMBL1132961
